# Target of assay: UniProtKB P22392
# Sequence (P22392 whole entry): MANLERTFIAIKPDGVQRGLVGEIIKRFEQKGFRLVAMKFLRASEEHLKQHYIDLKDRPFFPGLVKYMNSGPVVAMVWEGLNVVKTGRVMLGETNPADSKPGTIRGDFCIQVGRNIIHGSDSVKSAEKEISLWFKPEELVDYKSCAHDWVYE
# Assay comment: Binding affinity to NM23-H2 (unknown origin) by SPR analysis
Readout: pKd
A value of pKd is the negative decimal logarithm of a concentration given in moles per litre.

Example entries begin here.
O=c1c2cc(F)c(NCCN3CCCCC3)cc2nc2n1CC/C2=C\c1ccc(OCc2ccccc2)cc1O | 4.91
CCN(CC)CCCNc1cc2nc3n(c(=O)c2cc1F)CC/C3=C\c1ccc(OCc2ccccc2)cc1 | 4.84
COc1cc(/C=C2\CCn3c2nc2cc(NCCCN(C)C)c(F)cc2c3=O)cc(OC)c1O | 4.88

# input compound: CCN(CC)CCCNc1cc2nc3n(c(=O)c2cc1F)CC/C3=C\c1ccc(OCc2ccccc2)c(O)c1 ; wanted: its pKd 4.78

Same thing, different compound: O=C(NCCCN1CCCC1)c1ccc(/C=C2\CCn3c2nc2cc(NCCN4CCCC4)c(F)cc2c3=O)cc1 4.70
